Data credit: patent US11325938B2

Assayed target: CD73 (Homo sapiens (Human), UniProt P21589)
Sequence (P21589 27-574): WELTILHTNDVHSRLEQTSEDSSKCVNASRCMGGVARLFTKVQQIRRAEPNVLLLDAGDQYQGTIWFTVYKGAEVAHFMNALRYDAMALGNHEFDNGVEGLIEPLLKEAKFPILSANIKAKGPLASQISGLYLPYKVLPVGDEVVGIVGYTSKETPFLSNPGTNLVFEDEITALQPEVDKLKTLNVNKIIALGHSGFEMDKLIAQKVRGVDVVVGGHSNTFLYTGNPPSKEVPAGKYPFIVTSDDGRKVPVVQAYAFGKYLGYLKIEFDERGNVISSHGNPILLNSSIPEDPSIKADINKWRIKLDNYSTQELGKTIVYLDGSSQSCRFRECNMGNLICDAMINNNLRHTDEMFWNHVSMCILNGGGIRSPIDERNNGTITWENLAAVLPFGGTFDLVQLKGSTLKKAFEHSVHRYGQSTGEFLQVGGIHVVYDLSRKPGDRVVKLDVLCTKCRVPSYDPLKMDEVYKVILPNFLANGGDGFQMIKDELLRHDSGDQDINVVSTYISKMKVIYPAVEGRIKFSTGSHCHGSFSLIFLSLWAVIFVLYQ
pIC50: −log10 of the molar value.
# Lookup of reported pIC50 keyed by entry

Kindly note the recorded pIC50 for CC(CO)(OC[C@H]1O[C@@H](n2nnc3c(NC4CCCC4)cc(Cl)nc32)[C@H](O)[C@@H]1O)P(=O)(O)O (stereo partly drawn) [Example 66] , which is ≥ 7.00

###

Assayed target: CD73 (Homo sapiens (Human), UniProt P21589)
pIC50: −log10 of the molar value.
Readout name: pIC50

Observed pIC50 on CD73 (Homo sapiens (Human), UniProt P21589), entry "O=P(O)(O)C(CO)(CO)OC[C@H]1O[C@@H](n2ncc3c(NC4CCCC4)nc(Cl)nc32)[C@H](O)[C@@H]1O" , equals ≥ 7.00

###

pIC50: −log10 of the molar value.
pIC50 values recorded for CD73 (Homo sapiens (Human), UniProt P21589)

See these solved cases before continuing.
Kindly note the recorded pIC50 for O=P(O)(O)[C@](CO)(Cc1nn[nH]n1)OC[C@H]1O[C@@H](n2ncc3c(NCC4CC4)nc(Cl)nc32)[C@H](O)[C@@H]1O (racemic) , which is ≥ 7.00

Kindly note the recorded pIC50 for O=P(O)(O)[C@@](CO)(COCC1CC1)OC[C@H]1O[C@@H](n2ncc3c(NC4CCCC4)nc(Cl)nc32)[C@H](O)[C@@H]1O (racemic) , which is ≥ 7.00

Kindly note the recorded pIC50 for "O=P(O)(O)COC[C@H]1O[C@@H](n2nnc3c(NCC4CCC4)cc(Cl)nc32)[C@H](O)[C@@H]1O" , which is ≥ 7.00

Kindly note the recorded pIC50 for O=P(O)(O)C(CCO)S(=O)(=O)C[C@H]1O[C@@H](n2ncc3c(NC4CCCC4)nc(Cl)nc32)[C@H](O)[C@@H]1O (stereo partly drawn) , which is 6.00 to 7.00

Kindly note the recorded pIC50 for COCC(C)(OC[C@H]1O[C@@H](n2cnc3c(NC4CCCC4)nc(Cl)nc32)[C@H](O)[C@@H]1O)P(=O)(O)O (stereo partly drawn) , which is ≥ 7.00

API: the following record is the query input.
Kindly note the recorded pIC50 for CC(CO)(OC[C@H]1O[C@@H](n2ncc3c(N[C@@H]4CCc5ccccc54)nc(Cl)nc32)[C@H](O)[C@@H]1O)P(=O)(O)O (stereo partly drawn) , which is ≥ 7.00

###

# Lookup of reported IC50 keyed by entry
Assayed target: CD73 (Homo sapiens (Human))

See these solved cases before continuing.
Observed IC50 on CD73 (Homo sapiens (Human)), entry COCC(OC[C@@H]1O[C@H](n2ncc3c(NC4CCCC4)nc(Cl)nc32)[C@@H](O)[C@H]1O)(C(=O)O)P(=O)(O)O (mixture of isomers) , equals 100 to 1000 nM

Observed IC50 on CD73 (Homo sapiens (Human)), entry "COC[C@](CO)(OC[C@H]1O[C@@H](n2ncc3c(NC4CCCC4)nc(Cl)nc32)[C@H](O)[C@@H]1O)P(=O)(O)O" , equals ≤ 100 nM

Observed IC50 on CD73 (Homo sapiens (Human)), entry "CC#CC[C@](CO)(OC[C@H]1O[C@@H](n2ncc3c(NC4CCCC4)nc(Cl)nc32)[C@H](O)[C@@H]1O)P(=O)(O)O" , equals ≤ 100 nM

Observed IC50 on CD73 (Homo sapiens (Human)), entry C[C@@H](O)COc1nc(NC2CCCC2)c2cnn([C@@H]3O[C@H](COC(CO)(CO)P(=O)(O)O)[C@@H](O)[C@H]3O)c2n1 (racemic) , equals ≤ 100 nM

Further cases:
Observed IC50 on CD73 (Homo sapiens (Human)), entry "O=P(O)(O)C(CO)(CO)OC[C@H]1O[C@@H](n2ncc3c(NCC4CC4)nc(Cl)nc32)[C@H](O)[C@@H]1O" , equals ≤ 100 nM

Observed IC50 on CD73 (Homo sapiens (Human)), entry O=C(O)c1ccccc1COCC(CO)(OC[C@H]1O[C@@H](n2ncc3c(NC4CCCC4)nc(Cl)nc32)[C@H](O)[C@@H]1O)P(=O)(O)O (mixture of isomers) , equals ≤ 100 nM

###

IC50 values recorded for CD73 (Homo sapiens (Human))

See these solved cases before continuing.
Observed IC50 on CD73 (Homo sapiens (Human)), entry O=P(O)(O)C(CO)OC[C@@H]1C[C@@H](O)[C@H](n2ncc3c(NC4CCCC4)nc(Cl)nc32)O1 (stereo partly drawn) , equals ≤ 100 nM

Observed IC50 on CD73 (Homo sapiens (Human)), entry O=P(O)(O)C(CO)(CC1COC1)OC[C@H]1O[C@@H](n2ncc3c(NC4CCCC4)nc(Cl)nc32)[C@H](O)[C@@H]1O (mixture of isomers) , equals ≤ 100 nM

Observed IC50 on CD73 (Homo sapiens (Human)), entry "C[C@H](O)[C@@H](OC[C@H]1O[C@@H](n2ncc3c(NC4CCCC4)nc(Cl)nc32)[C@H](O)[C@@H]1O)P(=O)(O)O" , equals ≤ 100 nM

Observed IC50 on CD73 (Homo sapiens (Human)), entry O=C(c1ccccc1)C(OC[C@H]1O[C@@H](n2ncc3c(NC4CCCC4)nc(Cl)nc32)[C@H](O)[C@@H]1O)P(=O)(O)O (stereo partly drawn) , equals 100 to 1000 nM

Observed IC50 on CD73 (Homo sapiens (Human)), entry O=P(O)(O)C(CO)OC[C@H]1O[C@@H](n2cnc3c(NC4CCCC4)nc(Cl)nc32)[C@H](O)[C@@H]1O (stereo partly drawn) , equals ≤ 100 nM

API: the following record is the query input.
Observed IC50 on CD73 (Homo sapiens (Human)), entry "C[C@H](OC[C@H]1O[C@@H](n2ncc3c(NC4CCCC4)nc(Cl)nc32)[C@H](O)[C@@H]1O)P(=O)(O)O" , equals ≤ 100 nM

###

pIC50: −log10 of the molar value.
pIC50 values recorded for CD73 (Homo sapiens (Human))

See these solved cases before continuing.
Observed pIC50 on CD73 (Homo sapiens (Human)), entry "C[C@](Cc1nn[nH]n1)(OC[C@H]1O[C@@H](n2ncc3c(NC4CCCC4)nc(Cl)nc32)[C@H](O)[C@@H]1O)P(=O)(O)O" , equals ≥ 7.00

Observed pIC50 on CD73 (Homo sapiens (Human)), entry CSCC(C)(OC[C@H]1O[C@@H](n2ncc3c(NC4CCCC4)nc(Cl)nc32)[C@H](O)[C@@H]1O)P(=O)(O)O (stereo partly drawn) , equals ≥ 7.00

API: the following record is the query input.
Observed pIC50 on CD73 (Homo sapiens (Human)), entry COCC(C)(OC[C@H]1O[C@@H](n2ncc3c(N[C@@H]4CCc5ccccc54)nc(Cl)nc32)[C@H](O)[C@@H]1O)P(=O)(O)O (stereo partly drawn) , equals ≥ 7.00

###

Assayed target: UniProt P21589
pIC50: −log10 of the molar value.
# Lookup of reported pIC50 keyed by entry

Observed pIC50 on UniProt P21589, entry COCC(OC[C@H]1O[C@@H](n2nnc3c(NC4CCCC4)nc(Cl)nc32)[C@H](O)[C@@H]1O)P(=O)(O)O (some centres unmarked) [Example 142] , equals ≥ 7.00

Observed pIC50 on UniProt P21589, entry O=P(O)(O)C(CO)(CCO)OC[C@H]1O[C@@H](n2ncc3c(NC4CCCC4)nc(Cl)nc32)[C@H](O)[C@@H]1O (some centres unmarked) [Example 36] , equals ≥ 7.00

Observed pIC50 on UniProt P21589, entry O=C(O)COCC(CO)(OC[C@H]1O[C@@H](n2ncc3c(NC4CCCC4)nc(Cl)nc32)[C@H](O)[C@@H]1O)P(=O)(O)O (mixture of isomers) [Example 198] , equals ≥ 7.00

Observed pIC50 on UniProt P21589, entry O=P(O)(O)C(CO)(COCC(F)(F)F)OC[C@H]1O[C@@H](n2ncc3c(NC4CCCC4)nc(Cl)nc32)[C@H](O)[C@@H]1O (some centres unmarked) [Example 95] , equals ≥ 7.00

Further cases:
Observed pIC50 on UniProt P21589, entry O=P(O)(O)C(CO)(CO)OC[C@H]1O[C@@H](n2ncc3c(N[C@@H]4CC[C@H]5CCC[C@H]54)nc(Cl)nc32)[C@H](O)[C@@H]1O (racemic) [Example 164] , equals ≥ 7.00
